biological target: UniProtKB P35408; assay: Activity at EP4 receptor at 1 uM by FLIPR assay
Sequence (P35408 whole entry): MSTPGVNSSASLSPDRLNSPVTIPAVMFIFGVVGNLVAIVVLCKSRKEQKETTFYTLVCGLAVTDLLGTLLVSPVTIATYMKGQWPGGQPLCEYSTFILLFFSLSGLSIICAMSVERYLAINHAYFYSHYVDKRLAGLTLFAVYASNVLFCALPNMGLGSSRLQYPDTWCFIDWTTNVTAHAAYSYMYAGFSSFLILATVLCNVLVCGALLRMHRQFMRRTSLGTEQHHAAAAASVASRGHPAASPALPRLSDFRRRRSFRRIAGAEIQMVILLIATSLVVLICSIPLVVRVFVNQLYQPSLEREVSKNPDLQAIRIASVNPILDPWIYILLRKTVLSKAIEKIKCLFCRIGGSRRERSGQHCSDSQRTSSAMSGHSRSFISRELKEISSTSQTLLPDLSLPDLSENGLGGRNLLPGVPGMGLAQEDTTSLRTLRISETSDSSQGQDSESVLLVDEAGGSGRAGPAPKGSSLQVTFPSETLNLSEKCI
observable: Activity (%)

Below: 2 compounds and their reported Activity.
>>> df
                                smiles_data  observable  endpoint_value
0  Cc1cn(Cc2ccc(Cl)cc2Cl)c2c(-c3nnc(NS(=O)(=O)c4ccc(Cl)c(Cl)c4)o3)cc(F)cc12    Activity             -22
1  Cc1cn(Cc2ccc3ccccc3c2)c2c(-c3cc(NS(=O)(=O)c4ccc(F)c(F)c4)no3)cc(F)cc12    Activity             -17

(1) Cc1cn(Cc2ccc(Cl)cc2Cl)c2c(-c3nc(NS(=O)(=O)c4cc(Cl)c(Cl)s4)no3)cc(F)cc12
(2) Cc1cn(Cc2ccc3ccccc3c2)c2c(-c3cc(NS(=O)(=O)c4cc(Cl)c(Cl)s4)no3)cc(F)cc12
// task: argmin of Activity over [ 1 , 2 ] To answer, give the label that identifies your chosen option.
1

====

biological target: Thromboxane A2 receptor (Homo sapiens) (UniProt P21731); assay: Activity at TP receptor at 10 uM by FLIPR assay
Sequence (P21731 whole entry): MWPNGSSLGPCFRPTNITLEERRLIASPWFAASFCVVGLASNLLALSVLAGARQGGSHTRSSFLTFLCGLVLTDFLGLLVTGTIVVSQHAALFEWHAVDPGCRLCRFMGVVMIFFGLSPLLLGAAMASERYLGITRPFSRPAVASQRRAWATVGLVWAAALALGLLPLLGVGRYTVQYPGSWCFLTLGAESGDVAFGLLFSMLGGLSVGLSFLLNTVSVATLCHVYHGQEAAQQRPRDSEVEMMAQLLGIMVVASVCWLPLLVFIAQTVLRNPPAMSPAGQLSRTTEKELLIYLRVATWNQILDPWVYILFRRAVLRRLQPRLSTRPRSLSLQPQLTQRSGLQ
observable: Activity (%)

Below: 9 compounds and their reported Activity.
>>> df
                                smiles_data  endpoint_value
0  Cc1cn(Cc2ccc(Cl)cc2Cl)c2c(-c3nc(NS(=O)(=O)c4cc(Cl)c(Cl)s4)no3)cc(F)cc12              98
1  Cc1cn(Cc2ccc(F)c(F)c2)c2c(-c3cc(NS(=O)(=O)c4ccc(F)c(F)c4F)no3)cc(F)cc12              70
2  Cc1cn(Cc2ccc(Cl)cc2Cl)c2c(-c3nnc(NS(=O)(=O)c4ccc(Cl)c(Cl)c4)o3)cc(F)cc12              56
3  Cc1cn(Cc2ccc(Cl)cc2Cl)c2c(-c3nnc(NC(=O)c4ccc(F)c(F)c4)o3)cc(F)cc12              64
4  Cc1cn(Cc2ccc(Cl)cc2Cl)c2c(-c3nnc(NS(=O)(=O)c4ccc(F)c(F)c4)o3)cc(F)cc12              89
5  Cc1cn(Cc2ccc3ccccc3c2)c2c(-c3cc(NS(=O)(=O)c4ccc(F)c(F)c4)no3)cc(F)cc12              12
6  Cc1cn(Cc2ccc3ccccc3c2)c2c(-c3cc(NS(=O)(=O)c4cc(Cl)c(Cl)s4)no3)cc(F)cc12               7
7  Cc1cn(Cc2ccc3ccccc3c2)c2c(-c3cc(NS(=O)(=O)c4cc(F)c(F)cc4F)no3)cc(F)cc12              19
8  Cc1cn(Cc2ccc(Cl)cc2Cl)c2c(-c3nnc(NS(=O)(=O)c4cc(F)c(F)cc4F)o3)cc(F)cc12              99

(1) Cc1cn(Cc2ccc(F)c(F)c2)c2c(-c3cc(NS(=O)(=O)c4ccc(F)c(F)c4)no3)cc(F)cc12
(2) Cc1cn(Cc2ccc(F)c(F)c2)c2c(-c3cc(NS(=O)(=O)c4cc(Cl)c(Cl)s4)no3)cc(F)cc12
(3) Cc1cn(Cc2ccc3ccccc3c2)c2c(-c3cc(NS(=O)(=O)c4ccc(Cl)c(Cl)c4)no3)cc(F)cc12
Sort these compounds on Activity so the largest reading comes first. The response must list the labels following the requested ordering.
1, 2, 3

All values here come from ChEMBL document CHEMBL1154363.
